Data provenance: patent US20140314857A1

test: Intraduodenal bioavailability of zanamivir from glycerol and PBS formulations, enhancer pre-dose (Example 6); details: male, Sprague-Dawley, rat, in vivo, 1.5 mg/animal, Plasma concentration, ID 1.5 mg/animal, 50 µL PBS, 50 µL blank Capmul MCM L8 -2 hr; 0.5 hr; individual rats
metricName: concentration at 0.5 hr (ng/mL)

# compound, unitsText, result
data = [
    ("CC(=O)NC1C(NC(=N)N)C=C(C(=O)O)OC1C(O)C(O)CO (stereo not shown)", "ng/mL", 38),
]

----------
assay: Intravenous and intraduodenal bioavailability of zanamivir from three formulations (Example 5); conditions: male, Sprague-Dawley, rat, in vivo, 1.5 mg/animal, Plasma concentration, ID 1.5 mg/animal, PBS 50 µL; 2.0 hr; individual rats
metricName: concentration at 2 hr

# compound, metricName, result
data = [
    ("CC(=O)NC1C(NC(=N)N)C=C(C(=O)O)OC1C(O)C(O)CO (stereo not shown)", "concentration at 2 hr", "60.2 ng/mL"),
]

----------
assay: Intraduodenal bioavailability of zanamivir from glycerol and PBS formulations, enhancer pre-dose (Example 6); conditions: male, Sprague-Dawley, rat, in vivo, 1.5 mg/animal, Plasma concentration, ID 1.5 mg/animal, 150 µL Glycerol; 0.25 hr; mean
metricName: concentration at 0.25 hr (ng/mL)

# compound, result
measured = [
    ("CC(=O)NC1C(NC(=N)N)C=C(C(=O)O)OC1C(O)C(O)CO (stereo not shown) [Zanamivir]", 87.7),
]

----------
Assay: Intravenous and intraduodenal (bolus) bioavailability of zanamivir from Capmul MCM L8 25, 50, 75 µL (Example 7)
Details: male, Sprague-Dawley, rat, in vivo, iv, 1.5 mg/animal, Plasma concentration, IV 1.5 mg/animal, Normal Saline, Ex.7; 0.25 hr; individual rats
Description: Male Sprague-Dawley rats (Hilltop Labs), 3 animals per treatment group, 250-350 grams in weight, were fitted with a jugular vein cannula (JVC). Animals intended for intraduodenal dosing were also fitted with one or more intraduodenal cannula (IDC) and those intended for intravenous dosing were fitted with a second JVC. […] In this example, the bioavailability of Zanamivir was evaluated after intraduodenal doses in male Sprague-Dawley rats. […] Plasma levels were determined by LC-MS/MS analysis. […]

# compound, concentration at 0.25 hr, ng/mL
rows = [
    ("CC(=O)NC1C(NC(=N)N)C=C(C(=O)O)OC1C(O)C(O)CO (stereo not shown)", 11000),
]

----------
test: Intravenous and intraduodenal (bolus) bioavailability of zanamivir from Capmul MCM L8 25, 50, 75 µL (Example 7); conditions: male, Sprague-Dawley, rat, in vivo, 1.5 mg/animal, Plasma concentration, intraduodenal bolus, 75 μL Capmul MCM L8; 0.83 hr; mean of 3 rats

# compound, concentration at 0.83 hr / ng/mL
measured = [
    ("CC(=O)NC1C(NC(=N)N)C=C(C(=O)O)OC1C(O)C(O)CO (stereo not shown)", 2570),
]

----------
test: Intravenous and intraduodenal bioavailability of zanamivir from three formulations (Example 5); conditions: male, Sprague-Dawley, rat, in vivo, iv, 1.5 mg/animal, Plasma concentration, IV 1.5 mg/animal, Normal Saline, Ex.5; 1.5 hr; mean
metricName: concentration at 1.5 hr (ng/mL)

# compound, unitsText, result
records = [
    ("CC(=O)NC1C(NC(=N)N)C=C(C(=O)O)OC1C(O)C(O)CO (stereo not shown)", "ng/mL", 817),
]

----------
Assay: Intraduodenal bioavailability of zanamivir from glycerol and PBS formulations, enhancer pre-dose (Example 6)
Details: male, Sprague-Dawley, rat, in vivo, 1.5 mg/animal, Plasma concentration, ID 1.5 mg/animal, 150 µL Glycerol; 0.83 hr; mean
Experimental: Male Sprague-Dawley rats (Hilltop Labs), 3 animals per treatment group, 250-350 grams in weight, were fitted with a jugular vein cannula (JVC). Animals intended for intraduodenal dosing were also fitted with one or more intraduodenal cannula (IDC) and those intended for intravenous dosing were fitted with a second JVC. […] In this example, the bioavailability of Zanamivir was evaluated after intraduodenal doses in male Sprague-Dawley rats. […] Plasma levels were determined by LC-MS/MS analysis. […]

# compound, unitsText, concentration at 0.83 hr
records = [
    ("CC(=O)NC1C(NC(=N)N)C=C(C(=O)O)OC1C(O)C(O)CO (stereo not shown) [Zanamivir]", "ng/mL", 107),
]

----------
experiment: Intravenous and intraduodenal (bolus) bioavailability of zanamivir from Capmul MCM L8 25, 50, 75 µL (Example 7); conditions: male, Sprague-Dawley, rat, in vivo, 1.5 mg/animal, Plasma concentration, intraduodenal bolus, 75 μL Capmul MCM L8; 1.5 hr; rat 964
metricName: concentration at 1.5 hr (ng/mL)

# molecule, unitsText, result
rows = [
    ("CC(=O)NC1C(NC(=N)N)C=C(C(=O)O)OC1C(O)C(O)CO (stereo not shown)", "ng/mL", 273),
]

----------
assay: Intravenous and intraduodenal (bolus) bioavailability of zanamivir from Capmul MCM L8 25, 50, 75 µL (Example 7); conditions: male, Sprague-Dawley, rat, in vivo, iv, 1.5 mg/animal, Plasma concentration, IV 1.5 mg/animal, Normal Saline, Ex.7; 1.0 hr; mean

# molecule, unitsText, concentration at 1 hr
data = [
    ("CC(=O)NC1C(NC(=N)N)C=C(C(=O)O)OC1C(O)C(O)CO (stereo not shown) [Zanamivir]", "µg/mL", 1.76),
]

----------
Assay: Intraduodenal bioavailability of zanamivir from glycerol and PBS formulations, enhancer pre-dose (Example 6)
Conditions: male, Sprague-Dawley, rat, in vivo, 1.5 mg, tmax, ID 1.5 mg/animal, 100 µL Glycerol; mean
Method: Male Sprague-Dawley rats (Hilltop Labs), 3 animals per treatment group, 250-350 grams in weight, were fitted with a jugular vein cannula (JVC). Animals intended for intraduodenal dosing were also fitted with one or more intraduodenal cannula (IDC) and those intended for intravenous dosing were fitted with a second JVC. […] In this example, the bioavailability of Zanamivir was evaluated after intraduodenal doses in male Sprague-Dawley rats. […] Plasma levels were determined by LC-MS/MS analysis. […]

# compound, Tmax [min]
data = [
    ("CC(=O)NC1C(NC(=N)N)C=C(C(=O)O)OC1C(O)C(O)CO (stereo not shown)", 43.2),
]

----------
assay: Intravenous and intraduodenal bioavailability of zanamivir from three formulations (Example 5); conditions: male, Sprague-Dawley, rat, in vivo, 1.5 mg/animal, Plasma concentration, ID 1.5 mg/animal, PBS 50 µL; 1.5 hr; individual rats
metricName: concentration at 1.5 hr (µg/mL)

# compound, metricName, result
rows = [
    ("CC(=O)NC1C(NC(=N)N)C=C(C(=O)O)OC1C(O)C(O)CO (stereo not shown)", "concentration at 1.5 hr", 0.0596),
]

----------
test: Intravenous and intraduodenal bioavailability of zanamivir from three formulations (Example 5); conditions: male, Sprague-Dawley, rat, in vivo, 1.5 mg/animal, Plasma concentration, ID 1.5 mg/animal, PBS, 50 µL blank glycerol -2 hr; 1.5 hr; mean
metricName: concentration at 1.5 hr (ng/mL)

# compound, metricName, result
data = [
    ("CC(=O)NC1C(NC(=N)N)C=C(C(=O)O)OC1C(O)C(O)CO (stereo not shown)", "concentration at 1.5 hr", 47.5),
]

----------
assay: Intravenous and intraduodenal (bolus) bioavailability of zanamivir from Capmul MCM L8 25, 50, 75 µL (Example 7); settings: male, Sprague-Dawley, rat, in vivo, 1.5 mg/animal, Plasma concentration, intraduodenal bolus, 75 μL Capmul MCM L8; 0.25 hr; rat 964
metricName: concentration at 0.25 hr (ng/mL)

# molecule, result
data = [
    ("CC(=O)NC1C(NC(=N)N)C=C(C(=O)O)OC1C(O)C(O)CO (stereo not shown)", 1710),
]

----------
experiment: Intravenous and intraduodenal bioavailability of zanamivir from three formulations (Example 5); conditions: male, Sprague-Dawley, rat, in vivo, iv, 1.5 mg, t1/2, IV 1.5 mg/animal, Normal Saline, Ex.5; individual rats
metricName: half-life (min)

# compound, metricName, result
rows = [
    ("CC(=O)NC1C(NC(=N)N)C=C(C(=O)O)OC1C(O)C(O)CO (stereo not shown) [Zanamivir]", "half-life", 30.6),
]

----------
test: Intravenous and intraduodenal (bolus) bioavailability of zanamivir from Capmul MCM L8 25, 50, 75 µL (Example 7); conditions: male, Sprague-Dawley, rat, in vivo, 1.5 mg, t1/2, intraduodenal bolus, 1.5 mg/animal, 75 μL Capmul MCM L8; rat 964
metricName: half-life (min)

# compound, unitsText, result
rows = [
    ("CC(=O)NC1C(NC(=N)N)C=C(C(=O)O)OC1C(O)C(O)CO (stereo not shown) [Zanamivir]", "min", 21.9),
]

----------
assay: Intraduodenal bioavailability of zanamivir from glycerol and PBS formulations, enhancer pre-dose (Example 6); settings: male, Sprague-Dawley, rat, in vivo, 1.5 mg, t1/2, ID 1.5 mg/animal, 50 µL PBS, 50 µL blank Capmul MCM L8 -2 hr; individual rats
metricName: half-life (min)

# compound, unitsText, result
measured = [
    ("CC(=O)NC1C(NC(=N)N)C=C(C(=O)O)OC1C(O)C(O)CO (stereo not shown)", "min", 51.6),
]
